Species on record: Rattus norvegicus
Experiment: Open TG-GATES - Regimen: Daily Repeat
Assay type: toxicity, organism-based, Sprague-Dawley
Parameters: regimen Daily Repeat, gender Male, age 6 weeks
Settings: in vivo, po, 1000 mg/kg, […], tissue Plasma, route gavage, dose level High, time 28 day
Entries annotated with measured BUN
Express the result in mg/dL but write the number alone.

Recorded BUN, per entry:
molecule=COC1=CC(=O)C[C@@H](C)[C@]12Oc1c(Cl)c(OC)cc(OC)c1C2=O test_readout=BUN units_label=mg/dL measurement=14.8
molecule=NC(N)=Nc1nc(CSCCC(N)=NS(N)(=O)=O)cs1 test_readout=BUN units_label=mg/dL measurement=17.4
molecule="CCOC(=O)CCC(=O)O[C@H]1[C@H](O[C@@H]2[C@@H](C)[C@H](O[C@H]3C[C@@](C)(OC)[C@@H](O)[C@H](C)O3)[C@@H](C)C(=O)O[C@H](CC)[C@@](C)(O)[C@H](O)[C@@H](C)C(=O)[C@H](C)C[C@@]2(C)O)O[C@H](C)C[C@@H]1N(C)C [ERYTHROMYCIN ETHYLSUCCINATE]" test_readout=BUN units_label=mg/dL measurement=19.2
molecule="COc1ccc2[nH]c([S+]([O-])Cc3ncc(C)c(OC)c3C)nc2c1 (stereo not given)" test_readout=BUN units_label=mg/dL measurement=18.2

Then this molecule:
Reported BUN for CCOc1ccc(NC(=O)CC(C)O)cc1 (stereo not given) was 16.8
